- Assay target: T1, Bovine serum albumin (bovine, UniProt P02769 25-607)
- T1 construct: Immobilized control protein in SPR; also called BSA
- T1 sequence (P02769 25-607 limits assumed): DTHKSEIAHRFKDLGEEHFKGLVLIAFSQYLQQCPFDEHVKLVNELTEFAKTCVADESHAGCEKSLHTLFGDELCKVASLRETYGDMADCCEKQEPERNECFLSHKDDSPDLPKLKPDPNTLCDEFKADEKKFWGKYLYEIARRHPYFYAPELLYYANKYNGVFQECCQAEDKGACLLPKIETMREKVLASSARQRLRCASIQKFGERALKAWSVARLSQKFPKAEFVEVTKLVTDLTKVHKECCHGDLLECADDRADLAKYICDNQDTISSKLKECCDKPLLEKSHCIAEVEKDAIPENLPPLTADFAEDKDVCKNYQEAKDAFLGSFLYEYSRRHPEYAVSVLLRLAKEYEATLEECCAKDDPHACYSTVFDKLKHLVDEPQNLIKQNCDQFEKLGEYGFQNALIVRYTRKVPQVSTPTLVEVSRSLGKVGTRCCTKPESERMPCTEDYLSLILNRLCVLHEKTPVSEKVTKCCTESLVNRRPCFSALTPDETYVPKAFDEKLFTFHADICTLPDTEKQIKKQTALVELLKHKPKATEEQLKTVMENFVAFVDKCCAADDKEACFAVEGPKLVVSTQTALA
- Assay procedure: SPR, BSA immobilized, peptide as analyte
Where no end group is shown, it is not given here.
Measurement type: binding result

Binder | Measurement type | Result
WSGENGPGYFDYEA (Designed cetuximab mimic peptide for EGFR, made by synthesis; also called No. 6) [Pep6] | binding result | no binding
AEYDFYGPGNEGSW (also called No. 24) [Pep24] | binding result | no binding
WSGENGPGFYDYEA (not fully specified, Designed cetuximab mimic peptide for EGFR; Unlabelled in SPR; also called EGFR-PEP11; FITC-Pep11) [Pep11] | binding result | no binding
WSGENGPGTFYDYEA (also called EGFR-PEP22; No. 22) [Pep22] | binding result | no binding
